# Study Target: Human IDO1 (Homo sapiens (Human), UniProt P14902)
# Sequence (P14902 whole entry): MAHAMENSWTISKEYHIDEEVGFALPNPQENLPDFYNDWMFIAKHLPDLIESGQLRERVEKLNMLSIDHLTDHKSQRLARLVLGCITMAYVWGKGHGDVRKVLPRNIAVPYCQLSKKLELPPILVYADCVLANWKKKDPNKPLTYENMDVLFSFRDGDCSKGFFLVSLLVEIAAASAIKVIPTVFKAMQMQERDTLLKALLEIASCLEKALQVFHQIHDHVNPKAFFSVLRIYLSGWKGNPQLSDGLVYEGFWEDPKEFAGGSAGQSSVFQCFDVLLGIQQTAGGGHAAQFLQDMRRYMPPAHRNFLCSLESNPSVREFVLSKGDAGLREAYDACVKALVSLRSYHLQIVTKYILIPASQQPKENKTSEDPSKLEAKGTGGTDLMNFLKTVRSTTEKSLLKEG
# Assay Method Text: IDO Kynurenine Assay with Human IDO1/HEK293 Cells
# Recorded Conditions: 20 hours incubation, kynurenine detected with Ehrlich reagent, absorbance at 490 nm, read-out: HEK Human IDO-1 IC50
# Protocol: IDO Kynurenine Assay with Human IDO1/HEK293 Cells […] The compound treatments were stopped by adding Trichloroacetic Acid (Sigma-Aldrich) to a final concentration at 0.2%. […] The absorbance at 490 nm was measured on Envision plate reader. […]
Recorded IC50, one value per entry.
Use µM as the unit, but write only the number.

Some entries whose results are on file:
Dear colleague, please send me the reported IC50 for Cc1ccc(NC(=O)Nc2cc(C3(CC(=O)O)COC3)ccc2N(CC(C)C)CC(C)C)cc1 [Example 2] when you can.
0.205

Output measured IC50 for this item: Cc1ccc(NC(=O)Nc2cc(C(C)CC(=O)O)ccc2N(CC(C)C)C2CCCCC2)cc1 (racemic) [Example 49]
0.001

Answer with reported IC50 of Cc1cc(NC(=O)Nc2cc([C@@H](C)CC(=O)O)ccc2N(CC(C)C)CC(C)C)no1 [Example 44]
0.087

Please turn your attention to the following entry.
Determine from records and report IC50 for CC(C)CN(CC(C)C)c1ccc([C@H](C)CC(=O)O)cc1NC(=O)Nc1cncnc1 [Example 37]
0.011

src = patent US9624188B2
